Biological target: Prolyl endopeptidase FAP (Mus musculus, UniProt P97321)
Sequence (P97321 whole entry): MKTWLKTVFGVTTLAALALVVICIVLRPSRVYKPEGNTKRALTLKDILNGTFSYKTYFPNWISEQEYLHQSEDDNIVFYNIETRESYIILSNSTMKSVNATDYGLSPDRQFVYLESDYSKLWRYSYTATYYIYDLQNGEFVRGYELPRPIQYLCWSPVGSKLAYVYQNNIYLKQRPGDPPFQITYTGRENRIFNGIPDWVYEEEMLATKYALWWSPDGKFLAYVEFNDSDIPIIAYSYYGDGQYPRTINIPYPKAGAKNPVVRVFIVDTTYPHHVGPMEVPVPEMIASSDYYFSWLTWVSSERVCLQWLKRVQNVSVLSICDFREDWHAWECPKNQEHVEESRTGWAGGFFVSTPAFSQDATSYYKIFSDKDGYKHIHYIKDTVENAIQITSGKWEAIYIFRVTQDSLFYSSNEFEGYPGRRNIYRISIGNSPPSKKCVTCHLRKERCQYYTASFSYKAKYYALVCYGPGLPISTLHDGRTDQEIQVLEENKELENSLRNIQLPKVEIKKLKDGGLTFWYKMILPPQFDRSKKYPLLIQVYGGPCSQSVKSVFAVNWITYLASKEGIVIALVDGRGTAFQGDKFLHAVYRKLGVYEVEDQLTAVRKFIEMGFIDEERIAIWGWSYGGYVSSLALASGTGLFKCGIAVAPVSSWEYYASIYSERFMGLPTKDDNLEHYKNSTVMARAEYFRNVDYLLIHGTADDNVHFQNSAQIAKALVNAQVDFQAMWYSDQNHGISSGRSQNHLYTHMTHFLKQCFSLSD
Test: Inhibition of mouse recombinant FAP expressed in HEK293 cells assessed as pNA release from Ala-Pro-p-nitroanilide pre-incubated with enzyme for 15 mins prior to substrate addition by […]
Peptide text beside a SMILES is read from it. * marks the point of attachment. Bz = O=C(c1ccccc1)*; NHtBu = CC(C)(C)N*
# strict inequality: IC50 < 4 µM yields 1, everything else yields -1

As a guide, the following entries are already answered.
N#C[C@@H]1CCCN1C(=O)CNC(=O)c1c(Cl)cccc1Cl	-1
COc1cccc(C(=O)NCC(=O)N2CCC[C@H]2C#N)c1	1
N#C[C@@H]1CCCN1C(=O)CNC(=O)CCC(=O)NCc1ccc(F)cc1	-1
N#C[C@@H]1CC(F)(F)CN1C(=O)CNC(=O)c1ccccc1	1
CC(C)CC(=O)NCC(=O)N1CCC[C@H]1C#N	-1
CC(C)(C)NC(=O)[C@@H]1CCCN1C(=O)CNC(=O)c1ccccc1 (Bz-Gly-Pro-NHtBu)	-1
N#C[C@@H]1C[C@H](C(F)(F)F)CN1C(=O)CNC(=O)c1cccc2ccccc12	-1
N#C[C@@H]1CCCCN1C(=O)CNC(=O)c1cccc2ccccc12	-1

# input # check: IC50 < 4 µM for N#C[C@@H]1CCCN1C(=O)CNC(=O)c1ccc(OC(F)(F)F)cc1
# output -1

# input Next compound up: N#C[C@@H]1CCCN1C(=O)CNC(=O)CCC(=O)N1CCN(C(c2ccc(F)cc2)c2ccc(F)cc2)CC1
# output -1

# input Next compound up: N#C[C@@H]1CCCN1C(=O)CNC(=O)Cc1cccs1
# output -1

# input Next compound up: N#C[C@@H]1CCCN1C(=O)CNC(=O)C(c1ccc(Cl)cc1)c1ccc(Cl)cc1
# output 1

# input Next compound up: N#C[C@@H]1CCCN1C(=O)[C@H]1CCCN1C(=O)CCCc1ccccc1
# output -1

# input Next compound up: C=C1C[C@@H](C#N)N(C(=O)CNC(=O)c2cccc3ccccc23)C1
# output -1

# input Next compound up: N#C[C@@H]1CCCN1C(=O)CNC(=O)Cn1cc(-c2ccc(F)c(F)c2)nn1
# output 1

# input Next compound up: N#C[C@@H]1CCCN1C(=O)CNC(=O)CCC(=O)NC(c1ccc(F)cc1)c1ccc(F)cc1
# output -1

# input Next compound up: COc1ccc(C(=O)NCC(=O)N2CCC[C@H]2C#N)cc1OC1CCCC1
# output 1

# input Next compound up: N#C[C@@H]1CCCN1C(=O)CNC(=O)CN1CCN(C(c2ccc(F)cc2)c2ccc(F)cc2)CC1
# output 1

# input Next compound up: N#C[C@@H]1C[C@H](F)CN1C(=O)CNC(=O)c1cccc2ccccc12
# output 1

# input Next compound up: N#C[C@@H]1CCCN1C(=O)CNC(=O)c1ccc2ccccc2c1
# output -1

# input Next compound up: N#C[C@@H]1CCCN1C(=O)CNC(=O)c1cccc2ccccc12
# output 1

# input Next compound up: CCC1C[C@@H](C#N)N(C(=O)CNC(=O)c2cccc3ccccc23)C1 (stereo partly drawn)
# output -1

# input Next compound up: N#C[C@@H]1C[C@H](N=[N+]=[N-])CN1C(=O)CNC(=O)c1ccccc1
# output -1

# input Next compound up: CC1C[C@@H](C#N)N(C(=O)CNC(=O)c2ccccc2)C1 (stereo partly drawn)
# output -1

# input Next compound up: N#C[C@@H]1CCCN1C(=O)CNC(=O)CCc1ccccc1
# output -1

# input Next compound up: N#C[C@@H]1CCCCN1C(=O)CNC(=O)c1ccccc1
# output -1

# input Next compound up: N#C[C@@H]1CCCN1C(=O)CNC12CC3CC(CC(O)(C3)C1)C2
# output -1
